The measurements presented in this section are drawn from patent US20240158446A1.

TARGET UNDER TEST: GDP-bound KRAS wild-type protein (Homo sapiens, UniProt P01116)
Sequence (P01116 whole entry): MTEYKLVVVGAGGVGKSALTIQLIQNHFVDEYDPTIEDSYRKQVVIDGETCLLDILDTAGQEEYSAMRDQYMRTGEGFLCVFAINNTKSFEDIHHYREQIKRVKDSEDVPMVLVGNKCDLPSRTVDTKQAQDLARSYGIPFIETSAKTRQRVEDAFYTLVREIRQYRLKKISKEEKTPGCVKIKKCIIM
ASSAY REMARKS: Binding to KRAS by surface plasmon resonance (SPR), Single Cycle Kinetics
CONDITION DETAILS: SPR, Single Cycle Kinetics, GDP-bound KRAS wild-type protein; read-out: KRAS KD
Where a SMILES comes first, the peptide text is derived from it. Bridges are numbered along the chain shown (N, C = ends). [ ]: non-standard residue; d: D form. The star is where a group is joined. hPhe(3-Cl-4-CF3) = N[C@@H](CCc1ccc(C(F)(F)F)c(Cl)c1)C(=O)O; NPrPhe(4-CF3) = CCCN[C@@H](Cc1ccc(C(F)(F)F)cc1)C(=O)O; NMeGly(cPent) = CN[C@H](C(=O)O)C1CCCC1; NMeD = CN[C@@H](CC(=O)O)C(=O)O; NMeNva = CCC[C@H](NC)C(=O)O; Morpholide = C1CN(*)CCO1; Ac4c = NC1(C(=O)O)CCC1; NPrGly = CCCNCC(=O)O; Sar = CNCC(=O)O
Provide the recorded Kd for the entries that follow.
Lab book: enter the figure in nM, no units written.

Query :: Given the entry CCO[C@@H]1C[C@H]2C(=O)NC3(CCC3)C(=O)N(C)[C@@H](C3CCCC3)C(=O)N(C)[C@H](C(=O)N3CCOCC3)CC(=O)N(C)[C@@H](COC)C(=O)N[C@@H]([C@@H](C)CC)C(=O)N(C)CC(=O)N(C)[C@H]3CCCCCN(C3=O)[C@@H](Cc3ccc(C(F)(F)F)cc3)C(=O)N(C)CC(=O)N[C@@H](CCc3ccc(C(F)(F)F)c(Cl)c3)C(=O)N2C1 [PP0849] , report its measured Kd.
Result :: 0.46

Query :: Also CCC[C@@H]1C[C@H]2C(=O)NC3(CC(C)(C)C3)C(=O)N(C)[C@@H](C3CCCC3)C(=O)N(C)[C@H](C(=O)N(C)C)CC(=O)N(C)[C@@H](COC)C(=O)N[C@@H]([C@@H](C)CC)C(=O)N(C)CC(=O)N(C)[C@H]3C/C=C\CCN(C3=O)[C@@H](Cc3ccc(C(F)(F)F)cc3)C(=O)N(C)CC(=O)N[C@@H](CCc3ccc(C(F)(F)F)c(Cl)c3)C(=O)N2C1 [PP2275] ?
Result :: 0.36

Query :: Also C#CCN1CC(=O)N(C)[C@H]2C/C=C\CCN(C2=O)[C@@H](Cc2ccc(C)cc2)C(=O)N(C)CC(=O)N[C@@H](CCc2cc(F)c(C(F)(F)F)c(F)c2)C(=O)N2C[C@H](OCC)C[C@H]2C(=O)NC2(CC(C)(C)C2)C(=O)N(C)[C@@H](C2CCCC2)C(=O)N(C)[C@H](C(=O)N(C)C)CC(=O)N(C)[C@@H](CCC)C(=O)N[C@@H](CC(C)C)C1=O [PP2512] ?
Result :: 2

Query :: Also CCC[C@H]1C(=O)N[C@@H]([C@@H](C)CC)C(=O)N(C)CC(=O)N(C)[C@H]2C/C=C\CCN(C2=O)[C@@H](Cc2ccc(C(F)(F)F)cc2)C(=O)N(C)CC(=O)N[C@@H](CCc2cc(F)c(C(F)(F)F)c(F)c2)C(=O)N2C[C@H](OCC)C[C@H]2C(=O)N(C)C2(CCC2)C(=O)N(C)[C@@H](C2CCCC2)C(=O)N(C)[C@H](C(=O)N2CCCC2)CC(=O)N1C [PP3120] ?
Result :: 0.052

Query :: Also CCO[C@@H]1C[C@H]2C(=O)NC3(CCC3)C(=O)N(C)[C@@H](C3CCCC3)C(=O)N(C)[C@H](C(=O)N(C)C)CC(=O)N(C)[C@@H](Cc3ccc(C#N)cc3)C(=O)N[C@@H]([C@@H](C)CC)C(=O)N(C)CC(=O)N(C)[C@H]3CCCCCN(C3=O)[C@@H](Cc3ccc(C(F)(F)F)cc3)C(=O)N(C)CC(=O)N[C@@H](CCc3cc(F)c(C(F)(F)F)c(F)c3)C(=O)N2C1 [PP1173] ?
Result :: 0.18

Query :: Also CCCOC[C@H]1C(=O)N[C@@H]([C@@H](C)CC)C(=O)N(C)CC(=O)N(C)[C@H]2C/C=C\CCN(C2=O)[C@@H](Cc2ccc(C)cc2)C(=O)N(C)CC(=O)N[C@@H](CCc2ccc(C(F)(F)F)c(OC)c2)C(=O)N2C[C@@H](C)C[C@H]2C(=O)NC2(CC(C)(C)C2)C(=O)N(C)[C@@H](C2CCCC2)C(=O)N(C)[C@H](C(=O)N(C)CC)CC(=O)N1C [PP2461] ?
Result :: 0.15

Query :: Also CCO[C@@H]1C[C@H]2C(=O)NC3(CC(C)(C)C3)C(=O)N(C)[C@@H](C3CCCC3)C(=O)N(C)[C@H](C(=O)N3CCCCC3)CC(=O)N(C)[C@@H](CC)C(=O)N[C@@H]([C@@H](C)CC)C(=O)N(C)CC(=O)N(C)[C@H]3C/C=C\CCN(C3=O)[C@@H](Cc3ccc(C(F)(F)F)cc3)C(=O)N(C)CC(=O)N[C@@H](CCc3cc(F)c(C(F)(F)F)c(F)c3)C(=O)N2C1 [PP1945] ?
Result :: 0.31

Query :: Also CCO[C@@H]1C[C@H]2C(=O)NC3(CCC3)C(=O)N(C)[C@@H](C3CCCC3)C(=O)N(C)[C@H](C(=O)N(C)C)CC(=O)N(C)[C@@H](CC)C(=O)N[C@@H]([C@@H](C)CC)C(=O)N[C@@H](C)C(=O)N(C)[C@H]3C/C=C\CCN(C3=O)[C@@H](Cc3ccc(C(F)(F)F)cc3)C(=O)N(C)CC(=O)N[C@@H](CCc3cc(F)c(C(F)(F)F)c(F)c3)C(=O)N2C1 [PP1065] ?
Result :: 0.45

Query :: Also CCC[C@H]1C(=O)N[C@@H]([C@@H](C)CC)C(=O)N(CCC)CC(=O)N(C)CC(=O)N(CCC)[C@@H](Cc2ccc(C(F)(F)F)cc2)C(=O)N(C)CC(=O)N[C@@H](CCc2ccc(C(F)(F)F)c(Cl)c2)C(=O)N2CCC[C@H]2C(=O)NC2(CCC2)C(=O)N(C)[C@@H](C2CCCC2)C(=O)N(C)[C@H](C(=O)N2CCOCC2)CC(=O)N1C [PP1947] ([NMeNva]I[NPrGly][Sar][NPrPhe(4-CF3)][Sar][hPhe(3-Cl-4-CF3)]P[Ac4c][NMeGly(cPent)][NMeD]-Morpholide; lactam N-11) ?
Result :: 0.37

Query :: Also CC[C@H](C)[C@@H]1NC(=O)[C@H](CC(C)C)N(C)C(=O)C[C@@H](C(=O)N(CC)CC)N(C)C(=O)[C@H](C2CCCC2)N(C)C(=O)C2(CCC2)NC(=O)[C@@H]2C[C@H](C)CN2C(=O)[C@H](CCc2ccc(C(F)(F)F)c(OC)c2)NC(=O)CN(C)C(=O)[C@H](Cc2ccc(C)cc2)N2CC/C=C\C[C@@H](C2=O)N(C)C(=O)CN(C)C1=O [PP1885] ?
Result :: 0.23

Query :: Also CCO[C@@H]1C[C@H]2C(=O)NC3(CCCC3)C(=O)N(C)[C@@H](C3CCCC3)C(=O)N(C)[C@H](C(=O)N3CCOCC3)CC(=O)N(C)[C@@H](CC(C)C)C(=O)N[C@@H]([C@@H](C)CC)C(=O)N(C)CC(=O)N(C)[C@H]3CC(C)=CCN(C3=O)[C@@H](Cc3ccc(C(F)(F)F)cc3)C(=O)N(C)CC(=O)N[C@@H](CCc3cc(F)c(C(F)(F)F)c(F)c3)C(=O)N2C1 [PP1038] ?
Result :: 3
